// TGI lookup, one value per entry
# System: MALME-3M melanoma
# RUN DESCRIPTION: NCI tumour cell line growth inhibition, 48 h
Where a SMILES comes first, the peptide text is derived from it. The star is where a group is joined. Boc = CC(C)(C)OC(=O)*; OSu = O=C1CCC(=O)N1O*
RECORDED ENDPOINT: TGI

1) CCc1c2c(nc3cc4c(cc13)OCO4)-c1cc3c(c(=O)n1C2)COC(=O)[C@]3(O)CC = > 100 µM
2) [N-]=[N+]=Nc1c(Cl)c(=O)n(-c2ccccc2)c2ccccc12 = 43.9 µM
3) COC1OC(=O)[C@H]2O[N+]([O-])=C(C)[C@@H]12 (some centres not stated) = > 100 µM
4) O=C(C#Cc1c[nH]c(=O)[nH]c1=O)c1ccccc1Cl = 32.1 µM
5) O=C1CC(O)c2c1csc2Br (configuration not stated) = 82.4 µM
6) COc1ccc(/C(=C/n2ccnc2)C(=O)c2ccc(OC)c(OC)c2)cc1 = > 100 µM
7) Cc1cn(C2C=CC(COP(=O)(OCC3=CC(=O)c4ccccc4C3=O)N(C)CCCCCl)O2)c(=O)[nH]c1=O (configuration not stated) = 0.982 µM
8) CC(C)(C)OC(=O)NC(Cc1ccc(O)cc1)C(=O)NC(CCCCN)C(=O)NC(Cc1ccc(O)cc1)C(=O)NC(CCCCN)C(=O)ON1C(=O)CCC1=O (configuration not stated) (Boc-YKYK-OSu; configuration not given here) = > 100 µM
9) Cc1c(Cl)ccc2c(=O)c3cccc(CC(=O)O)c3oc12 = > 100 µM
10) O=C(NNc1nc2c(F)cccc2n2cccc12)c1cnccn1 = > 77.1 µM
11) CCCCc1c(O)nc(Nc2nc3ccccc3[nH]2)[nH]c1=O = > 100 µM
12) CCCCCCCCCCCCCC(=S)NCCCC[C@H](NC(=O)OCc1ccccc1)C(=O)Nc1ccccc1 = > 100 µM
13) Cc1ccc(S(=O)(=O)N2CCN3C(=O)c4ccccc4C32c2ccc(F)cc2)cc1 (configuration not stated) = > 100 µM
14) c1sc(NC2=NCCO2)c2c1CCCC2 = > 100 µM
15) CC(=O)c1ccc(Nc2cc(-c3ccccc3)nc3c(O)cccc23)cc1 = 68.3 µM
16) COc1ccc(C(=S)N2CCN(c3cccc(Cl)c3)CC2)cc1 = > 100 µM
17) O=C(Nc1cccc(-n2ccc3c(NC(=O)c4ccccc4)nccc32)c1)c1cccc(C(F)(F)F)c1 = 10.4 µM

###

# Test system: DU-145 prostate
# RUN DESCRIPTION: NCI tumour cell line growth inhibition, 48 h
RECORDED ENDPOINT: log10 TGI (log10 of the value in µM)

1. O=C1CC(=O)N(c2ccccc2)N1/C(=C/c1ccccc1)c1ccccc1 = 1.92
2. CCOc1ccc(S(=O)(=O)/N=C2\C=C(SCC(=O)O)C(=O)c3ccccc32)cc1 = 0.77
3. COC(=O)C(=O)CC(=O)CCn1ncc(Cl)c(Cl)c1=O = 1.54
4. CN=C(N)N/N=C(\c1ccccc1)c1ccc(Br)cc1 = 1.02
5. COc1ccc(Nc2c(C#N)c3n(c4ccccc24)c2ccccc2[n+]3C)cc1OC = 1.27
6. C[C@@H]1CC[C@@H]2[C@@H]1[C@H](OC(=O)/C=C/c1ccccc1)[C@]1(c3ccccc3)C[C@@H](OC(=O)CO)[C@@]2(C)O1 = 1.53
7. COc1cc(/C=C\[N+](=O)[O-])ccc1O = 0.77
8. CC1(C)N=C(N)N=C(N)N1c1ccc(CCCCc2ccc(S(=O)(=O)F)cc2)cc1 = 1.45
9. N#CC(=C1SCS1)[N+](=O)[O-] = 1.00
10. O=C1CC(O)c2c1csc2Br (configuration not stated) = 1.94
11. O=C(c1ccc2ccccc2c1)c1c(C(F)(F)F)n([O-])c2cc(Cl)c(Cl)cc2[n+]1=O = 0.46
12. Cc1ccn2c3c(c(C(=O)O)c2c1)C(=O)c1ccccc1C3=O = 0.50
13. N#Cc1c(-c2cccs2)c2c(=S)[nH]c(=S)[nH]c2[nH]c1=S = 1.90

###

Recorded GI50, one value per entry.
# System: HOP-92 NSCLC
# RUN DESCRIPTION: NCI tumour cell line growth inhibition, 48 h
RECORDED ENDPOINT: GI50

1. CN1CCN(CC#Cc2cccc(C(=O)c3cnn(-c4ccc(F)cc4)c3N)c2)CC1 = 15.2 µM
2. CC(=O)c1ccc(Nc2cc(-c3ccccc3)nc3c(O)cccc23)cc1 = 13.7 µM
3. CC(C)(C)c1cc(O)c(O)c(C(C)(C)C)c1 = 1.36 µM
4. Oc1ccccc1/C=N/Nc1ccc2ccccc2n1 = 4.47 µM
5. COc1cc(-n2cc(-c3ccc(Cl)c(Cl)c3)nc2SCc2ccccc2)cc(OC)c1OC = > 100 µM
6. C=C1C(=O)O[C@H]2[C@H]1CC/C(CNC(=O)c1c[nH]c3ccc(F)cc13)=C\CC[C@@]1(C)O[C@@H]21 = 1.54 µM
7. CCn1c(-c2nonc2N)nc2c(C#CCN)ncc(OCCCN)c21 = 4.64 µM
8. Nc1n[nH]c2ccc([C@@H]3Nc4ccc5[nH]ncc5c4[C@H]4[C@H]5CCC(C5)[C@H]43)cc12 = 1.45 µM
9. COC(=O)C1OC(O[C@H]2CCC3(C)C(CCC4(C)C3CC=C3C5CC(C)(C)CCC5(C(=O)O)CC[C@]34C)C2(C)C)C(O)C(OC2OC(CO)C(O)C(O)C2O)C1O (stereo not given in full) = 7.12 µM
10. CC(=O)[CH-]C(=O)c1ccccc1.CC(=O)[CH-]C(=O)c1ccccc1.CCCCCCCCCCCCCCCCCC(=O)[O-].CCCCCCCCCCCCCCCCCC(=O)[O-].[Ti+4] = 17 µM

###

# System: OVCAR-3 ovarian
# RUN DESCRIPTION: NCI tumour cell line growth inhibition, 48 h
RECORDED ENDPOINT: TGI (µM)

1. COC(=O)C1=C(C(=O)OC)C2OC1C1C2C2(C)C(C)=C(C)C1(C)S2=O (stereo not drawn) = 25.5
2. O=c1oc2ccccc2c(O)c1C(c1cc(OCc2ccccc2)cc(OCc2ccccc2)c1)c1c(O)c2ccccc2oc1=O = 35

###

# Tested on: HCC-2998 colon
# RUN DESCRIPTION: NCI tumour cell line growth inhibition, 48 h
Here, each record is paired with measured TGI data.
RECORDED ENDPOINT: TGI (µM)

1) N#Cc1c(N)[nH]c(=S)c(C#N)c1-c1cccc(Cl)c1 = 35.6
2) Cc1ccc(N=Nc2c3c(c(O)c4ccccc24)CCC(C)(C)O3)cc1 = 34.3
3) O=c1oc2ccccc2c(O)c1C(c1cc(OCc2ccccc2)cc(OCc2ccccc2)c1)c1c(O)c2ccccc2oc1=O = 11.9
4) O=C1CC(=O)N(c2ccccc2)N1/C(=C/c1ccccc1)c1ccccc1 = 37.3
5) COc1ccc2cc1Oc1ccc(cc1)C[C@H]1c3cc(c(OC)cc3CCN1C)Oc1c(OC)c(OC)cc3c1[C@H](C2)N(C)CC3 = 8.65
6) Clc1nc(Cl)nc(NC23CC4CC(CC(C4)C2)C3)n1 = 41.2
7) C[C@@H]1CC[C@@H]2[C@@H]1[C@H](OC(=O)/C=C/c1ccccc1)[C@]1(c3ccccc3)C[C@@H](OC(=O)CO)[C@@]2(C)O1 = 29

###

compounds and their reported GI50
# Tested on: UACC-62 melanoma
# RUN DESCRIPTION: NCI tumour cell line growth inhibition, 48 h
RECORDED ENDPOINT: GI50

1. CC(=O)OCC1OC(O[C@@H]2C[C@H]3C(C)(C)[C@H](OC(C)=O)CC[C@]3(C)[C@H]3CCC4=C([C@@H](C)C[C@@H](O)[C@H](O)C(C)(C)O)CC[C@@]4(C)[C@@]32C)C(O)C(O)C1O (some centres undefined) = 12.6 µM
2. C=C1C(O)C2CCC(C)(C)C(=O)C2=C(CC(C)C)C12CC2 (centres undefined) = 90.8 µM
3. O=[Se]([O-])c1ccccc1.O=[Se]([O-])c1ccccc1.[OH3+].[OH3+].[Pt+2] = 13.1 µM
4. C=CC(=O)Nc1cccc(-c2nc(SC)nc(Nc3ccccc3OC)c2C#N)c1 = 2.81 µM
5. Cc1cc([C@@H](C)Nc2ccccc2C(=O)O)c2nc(N3CCOCC3)cc(=O)n2c1 = 0.627 µM
6. COc1cc(C(=O)NC2c3ccccc3-c3ccccc32)c(N)cc1OCc1ccccc1 = 20.1 µM
7. COc1ccc(NC(=O)Nc2n[nH]c3ccccc23)cc1 = > 100 µM
8. CCn1c(-c2nonc2N)nc2c(C#CCN)ncc(OCCCN)c21 = > 25 µM
9. O=C1/C(=C/c2ccc(F)cc2)CCOc2ccc([N+](=O)[O-])cc21 = 2.19 µM
